Assay: Microsomal stability assay, human liver microsomes
Format: in vitro ADME
Conditions: 10 μM
endpoint-label: Mics (hu) comp remaining 60 min (%)

Study these solved cases before continuing.
Nc1nc(-c2ccc3ccccc3c2)c2ccn([C@@H]3O[C@H](COP(=O)(O)CP(=O)(O)O)[C@@H](O)[C@H]3O)c2n1 [11C.7] : 100
O=P(O)(O)CP(=O)(O)OC[C@H]1O[C@@H](n2ccc3c(-c4ccco4)nc(F)nc32)[C@H](O)[C@@H]1O [14D.1] : 103
N#Cc1ccc(-c2nc(Cl)nc3c2ccn3[C@@H]2O[C@H](COP(=O)(O)CP(=O)(O)O)[C@@H](O)[C@H]2O)c2ccccc12 : 97
O=P(O)(O)CP(=O)(O)OC[C@H]1O[C@@H](n2ccc3c(-c4ccccc4)ncnc32)[C@@H](F)[C@@H]1O [34A.5] : 93

I = Nc1nc(-c2cccc3ccccc23)c2ccn([C@@H]3O[C@H](COP(=O)(O)CP(=O)(O)O)[C@@H](O)[C@H]3O)c2n1 [11C.6]
II = COC(=O)c1ccc2cc(-c3nc(Cl)nc4c3ccn4[C@@H]3O[C@H](COP(=O)(O)CP(=O)(O)O)[C@@H](O)[C@H]3O)ccc2c1
Would you let me know which has the greater Mics (hu) comp remaining 60 min value, I or II ? Record your answer as the label of the chosen record.
II
(II: 132%, I: 92%)

Recorded values, source paper PMC12797170.
